biological target: HDAC8 (Homo sapiens, UniProt Q9BY41); assay: Enzyme HDAC inhibition assay, HDAC8
Sequence (Q9BY41 whole entry): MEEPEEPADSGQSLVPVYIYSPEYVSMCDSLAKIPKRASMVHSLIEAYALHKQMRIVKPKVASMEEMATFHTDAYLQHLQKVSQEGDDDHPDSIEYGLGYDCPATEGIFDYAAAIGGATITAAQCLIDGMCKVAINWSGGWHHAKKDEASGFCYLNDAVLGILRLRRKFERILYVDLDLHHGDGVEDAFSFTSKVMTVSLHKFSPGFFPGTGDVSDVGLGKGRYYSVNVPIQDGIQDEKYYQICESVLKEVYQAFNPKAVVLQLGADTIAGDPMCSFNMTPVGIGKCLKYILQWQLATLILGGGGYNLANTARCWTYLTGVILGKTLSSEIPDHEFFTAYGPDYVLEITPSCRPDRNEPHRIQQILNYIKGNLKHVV
QUANTITY NAME: pIC50
The meaning of pIC50 here: minus log10 of the concentration in molar units.

Fill in the blank: the reported pIC50 of O=C(O)CCCCC(S)CCS (racemic) is ____.
4.29

###

Record form. Attribute: IC50. Fill in for each entry.
test system: MDA-MB-231; experiment: MTT cell viability assay, MDA-MB-231; assay type: cell-based, human; conditions: 120 h; IC50 ± SEM; read-out: IC50 MDA-MB-231, 120 h MTT assay
Give your result in µM as a bare value.

// lookup IC50 for O=C(O)CCCC[C@@H]1CCSS1 [(R)-α-lipoic acid]
225

Would you mind doing O=C(O)CCCC[C@H]1CCSS1 [(S)-α-lipoic acid] as well?
243

Would you kindly repeat that for O=C(O)CCCCC1CCSS1 (racemic) [rac-α-lipoic acid] ?
275

Values from paper PMC11313180
